biological target: Voltage-gated inwardly rectifying potassium channel KCNH2 (Homo sapiens); assay: Human Ether-a-go-go-Related Gene (hERG) channel small molecule antagonists: fluorescence cell-based qHTS assay (AID 1671200); conditions: hERG-U2OS cells, FluxOR thallium flux fluorescence; series mostly up to 76.8 µM; note: nearly all actives have a fitted effect of over 50% in size
Inconclusive results are not listed. Calls of active or inactive are those of the source. Calls come from the whole dose curve; as a rule, active = well fitted inhibition curve with a large enough effect in the repeat runs; inconclusive = weak or mixed curves; inactive = flat fitted curve, though single readings scatter.
Labels: 1.0 = active, 0.0 = inactive

Compound: C=CC(C)(C)O
Group label: 0.0

Compound: O=S(=O)(c1ccc(OCc2ccccc2)cc1)c1ccccc1O
Group label: 0.0

Compound: O=C1OC(O)C(C(Cl)Cl)=C1Cl (stereo not drawn)
Group label: 0.0

Compound: C=CC(=O)O[C@H]1C[C@@H]2CC[C@@]1(C)C2(C)C
Group label: 0.0

Compound: COCCC(=O)OC
Group label: 0.0

Compound: c1ccc(-c2nc3ccccc3[nH]2)cc1
Group label: 0.0

Compound: Cc1ccc(Cl)c(N)c1Cl
Group label: 0.0

Compound: CC(=O)Nc1ccc(N=Nc2cc(C)ccc2O)cc1
Group label: 0.0

Compound: CC1(C)[C@H]2CC[C@]1(C)C(=O)C2
Group label: 0.0

Compound: CC/C=C(\C)C=O
Group label: 0.0

Compound: CCOC=C(C(=O)OCC)C(=O)OCC
Group label: 0.0

Compound: CCN(CC)c1ccc2c(c1)Oc1cc(N(CC)CC)ccc1C21OC(=O)c2ccccc21
Group label: 0.0

Compound: C1CCSC1
Group label: 0.0

Compound: O=C1c2ccccc2C(=O)c2c(Cl)cccc21
Group label: 0.0

Compound: C=C1C(CCl)(CCl)C2(Cl)C(Cl)C(Cl)C1(Cl)C2(Cl)Cl (stereo not drawn)
Group label: 1.0

Compound: O=[N+]([O-])c1ccc(CO)cc1
Group label: 0.0

Compound: c1ccc(C[P+](c2ccccc2)(c2ccccc2)c2ccccc2)cc1
Group label: 1.0

Compound: O=C1OC2(c3ccccc31)c1ccc(O)c(Br)c1Oc1c2ccc(O)c1Br
Group label: 1.0

Compound: COC(=O)c1ccc([N+](=O)[O-])cc1
Group label: 0.0

Compound: O=C(c1ccccc1)c1ccc(Cl)cc1
Group label: 0.0

Compound: Nc1cc([N+](=O)[O-])cc(Cl)c1O
Group label: 0.0

Compound: O=C(Nc1ccc([N+](=O)[O-])cc1)Nc1ccc([N+](=O)[O-])cc1 (tested in a mixture with another compound)
Group label: 0.0

Compound: Nc1c(Br)cc([N+](=O)[O-])cc1Br
Group label: 0.0

Compound: [Cl][Dy]([Cl])[Cl]
Group label: 0.0

Compound: CCOC(=O)[C@H](O)[C@@H](O)C(=O)OCC
Group label: 0.0

Compound: C=CC(=O)OCC(Br)CBr (stereo not drawn)
Group label: 0.0

Compound: CCCOC(=O)c1ccc(O)cc1
Group label: 0.0

Compound: CCC(O)CO (stereo not drawn)
Group label: 0.0

* * *

molecular target: Aromatase (Homo sapiens); assay: qHTS assay to identify aromatase inhibitors (AID 743083); conditions: MCF-7 aro ERE, testosterone-driven ERE luciferase, 24 h; series mostly up to 70.3 µM; note: nearly all actives have a fitted effect of over 55% in size
Inconclusive results are not listed. Active and inactive are the calls of the source. The call rests on the fitted dose curve; in most records, active means well fitted inhibition curve with a large enough effect in the repeat runs; inconclusive means weak or mixed curves; inactive means no such curve, though single readings can be large or run the other way.
Outcome codes: active, inactive

Compound: CCCOC(=O)c1ccccc1O
Group label: inactive

Compound: CC1(C)C[C@@H]1C(=O)N/C(=C\CCCCSC[C@H](N)C(=O)O)C(=O)O
Group label: inactive

Compound: COC1=C(OC)C(=O)C(C/C=C(\C)CC/C=C(\C)CC/C=C(\C)CC/C=C(\C)CC/C=C(\C)CC/C=C(\C)CC/C=C(\C)CC/C=C(\C)CC/C=C(\C)CCC=C(C)C)=C(C)C1=O
Group label: inactive

Compound: CC(=O)N[C@@H](C=O)[C@H](O)[C@H](O)[C@@H](O)CO
Group label: inactive

Compound: O=C(O)c1cc(=O)c2c3nc4ccccc4oc-3cc(=O)c2[nH]1
Group label: inactive

Compound: CC(=O)OCC1=C(C(=O)O)N2C(=O)[C@@H](NC(=O)Cc3ccccc3)[C@H]2SC1
Group label: inactive

Compound: CC(O)(c1ccc(Cl)cc1)c1ccc(Cl)cc1
Group label: active

Compound: CCOC(=O)Cc1ccc(-c2ccccc2)cc1
Group label: inactive

Compound: CC[C@H]1OC(=O)C[C@@H](O)[C@H](C)[C@@H](O[C@@H]2O[C@H](C)[C@@H](O)[C@H](N(C)C)[C@H]2O)[C@@H](CCN2C[C@H](C)C[C@H](C)C2)C[C@@H](C)C(=O)/C=C/C(C)=C/[C@@H]1CO[C@@H]1O[C@H](C)[C@@H](O)[C@@H](OC)[C@H]1OC
Group label: inactive

Compound: CC1(C)CCC(NC(=O)[C@@H](N)CCC(=O)O)CC1
Group label: inactive

Compound: COc1cc([C@@H]2c3cc4c(cc3[C@@H](O[C@@H]3O[C@@H]5CO[C@@H](C)O[C@H]5[C@H](O)[C@H]3O)[C@H]3COC(=O)[C@H]23)OCO4)cc(OC)c1O
Group label: inactive

Compound: CO/N=C(\C(=O)N[C@@H]1C(=O)N2C(C(=O)O)=C(CSc3nc(C)c(CC(=O)O)s3)CS[C@H]12)c1csc(N)n1
Group label: inactive

Compound: CCCC(CCC)C(=O)OC1C[C@H]2CC[C@@H](C1)[N+]2(C)C (stereo partly specified)
Group label: inactive

Compound: Nc1nc(NC2CC2)c2ncn([C@@H]3C=C[C@@H](CO)C3)c2n1
Group label: inactive

Compound: CCOc1ccc([N+](=O)[O-])cc1
Group label: active

Compound: CO[C@H]1C[C@H](O[C@H]2[C@H](C)[C@@H](O[C@@H]3O[C@H](C)C[C@H](N(C)C)[C@H]3O)[C@@H](C)C[C@]3(CO3)C(=O)[C@H](C)[C@@H](O)[C@@H](C)[C@@H](C)OC(=O)[C@@H]2C)O[C@@H](C)[C@@H]1O
Group label: inactive

* * *

test: qHTS assay to identify small molecule antagonists of the estrogen related receptor (ERR) signaling pathway (AID 1224819; note: nearly all actives have a fitted effect of over 50% in size); conditions: ERR reporter cell line, luciferase inhibition; series mostly up to 46.1 µM
Inconclusive results are not listed. Activity calls are given as the source filed them. Calls follow the shape of the dose curve; as a rule, active = well fitted inhibition curve with a large enough effect in the repeat runs; inconclusive = weak or mixed curves; inactive = no such curve, though single readings can be large or run the other way.
Possible outcomes: active, inactive

Molecule: O=c1c(O)c(-c2cc(O)c(O)c(O)c2)oc2cc(O)cc(O)c12
Group label: inactive
--
Molecule: CCCCCCCCc1ccc(-c2ccc(C(=O)O)cc2)cc1
Group label: inactive
--
Molecule: CCCCCCCCCCCCCCCCCCN(CCCCCCCCCCCCCCCCCC)CCCN(CCO)CCO
Group label: inactive
--
Molecule: CCN(CC)CCn1c(=O)c(Cc2ccc(OC)cc2)nc2ccccc21
Group label: inactive
--
Molecule: CCCCCC(O)CCCC(=O)O (configuration not stated)
Group label: inactive
--
Molecule: CCc1cncnc1N1CCN(Cc2nc3ccc(C(F)(F)F)cc3[nH]2)CC1
Group label: active
--
Molecule: CC(N)(C(=O)O)c1ccc(C(=O)O)cc1 (configuration not stated)
Group label: inactive
--
Molecule: Oc1ccc(Cn2cc[nH]c2=S)cc1
Group label: inactive
--
Molecule: N[C@H](CCCP(=O)(O)O)C(=O)O
Group label: inactive
--
Molecule: Cn1c(=O)c2c(nc(/C=C/c3cccc(Cl)c3)n2C)n(C)c1=O
Group label: inactive
--
Molecule: NCCCCC(=O)O
Group label: inactive
--
Molecule: NC(=O)CNCCC(c1ccccc1)c1ccccc1
Group label: inactive

* * *

target: Glucocorticoid receptor (Homo sapiens) (UniProt P04150); assay: qHTS assay to identify small molecule antagonists of the glucocorticoid receptor (GR) signaling pathway (AID 720692); conditions: GR-bla HeLa, beta-lactamase FRET ratio, dexamethasone-stimulated, 18 h; series mostly up to 58.5 µM
Sequence (P04150 whole entry, looked up): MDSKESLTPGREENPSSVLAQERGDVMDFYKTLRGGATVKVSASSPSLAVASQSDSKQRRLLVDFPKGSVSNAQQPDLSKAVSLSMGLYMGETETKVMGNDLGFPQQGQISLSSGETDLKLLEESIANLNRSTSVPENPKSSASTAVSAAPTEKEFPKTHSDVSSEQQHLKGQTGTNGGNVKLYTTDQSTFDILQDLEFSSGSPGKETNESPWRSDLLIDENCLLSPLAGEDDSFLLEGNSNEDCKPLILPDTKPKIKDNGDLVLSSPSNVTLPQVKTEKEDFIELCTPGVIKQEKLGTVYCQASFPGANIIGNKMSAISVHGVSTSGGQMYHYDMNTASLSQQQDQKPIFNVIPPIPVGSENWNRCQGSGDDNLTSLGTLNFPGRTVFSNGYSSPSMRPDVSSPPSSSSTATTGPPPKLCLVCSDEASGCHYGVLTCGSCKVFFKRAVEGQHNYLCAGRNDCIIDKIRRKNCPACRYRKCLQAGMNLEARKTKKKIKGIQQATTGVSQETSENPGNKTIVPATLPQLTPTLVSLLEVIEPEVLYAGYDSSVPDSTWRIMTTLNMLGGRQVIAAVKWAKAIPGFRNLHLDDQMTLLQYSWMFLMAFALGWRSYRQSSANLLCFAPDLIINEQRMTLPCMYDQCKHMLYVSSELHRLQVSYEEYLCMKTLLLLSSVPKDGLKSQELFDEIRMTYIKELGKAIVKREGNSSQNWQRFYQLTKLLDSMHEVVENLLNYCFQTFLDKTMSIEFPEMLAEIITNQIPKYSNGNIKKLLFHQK
Records with an inconclusive call do not appear. Active and inactive are the calls of the source. Calls follow the shape of the dose curve; as a rule, active = well fitted inhibition curve with a large enough effect in the signal ratio in the repeat runs (not every such curve was filed as active); inconclusive = weak or mixed curves, or effect the other way; inactive = no such curve, though single readings can be large or run the other way; the % refers to the signal ratio.
Labels: TRUE (active), FALSE (inactive)

Compound: COC(=O)C[C@](O)(CCCC(C)(C)O)C(=O)O[C@@H]1C(OC)=CC23CCCN2CCc2cc4c(cc2[C@H]13)OCO4 (stereo not given in full)
Group label: TRUE

Compound: CCC[C@@H]1C[C@@H](C(=O)N[C@@H]([C@H]2O[C@H](SC)[C@H](OP(=O)(O)O)[C@@H](O)[C@H]2O)[C@H](C)Cl)N(C)C1
Group label: FALSE

Compound: C[C@@H]1O[C@@H]1P(=O)(O)O
Group label: FALSE

Compound: CCN(CC)C(=O)[C@]1(c2ccccc2)C[C@@H]1CN
Group label: FALSE

Compound: CNCCC=C1c2ccccc2CCc2ccccc21
Group label: FALSE

* * *

assay: qHTS assay to identify small molecule antagonists of the estrogen related receptor (ERR) signaling pathway - cell viability counter screen (AID 1224818); conditions: ERR reporter cell line viability counter screen; series mostly up to 46.1 µM;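 note: viability measured after 17.5 h of compound exposure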
Records with an inconclusive call do not appear. Activity calls are given as the source filed them. The call rests on the fitted dose curve; in most records, active means well fitted cell-killing curve with a large enough effect in the repeat runs; inconclusive means weak or mixed curves; inactive means flat fitted curve, though single readings scatter.
Outcomes: active, inactive

Molecule: NC(=O)c1ccc2[nH]ccc2c1
Group label: inactive

Molecule: Nc1nc2ccc(Cl)cc2n2c(-c3ccccc3)nnc12
Group label: inactive

Molecule: CC(C)NC[C@H](O)COc1cccc2[nH]ccc12
Group label: inactive

Molecule: Cc1ccc(O)c(N=Nc2ccccc2)n1
Group label: inactive

Molecule: CC1=C(/C=C/C(C)=C/C=C/C(C)=C\C(=O)O)C(C)(C)CCC1
Group label: inactive

Molecule: N=C(N)SCCc1cnc[nH]1
Group label: inactive

Molecule: CN1C2CCC1CC(OC(=O)C(CO)c1ccccc1)C2 (stereo not drawn)
Group label: inactive

Molecule: COc1cccc(OC)c1OCCNCC1CSc2ccccc2O1 (stereo not drawn)
Group label: inactive

Molecule: O=C(O)c1cc(=O)c2c(Cl)cc(Cl)cc2[nH]1
Group label: inactive

Molecule: NCCCC(=O)O
Group label: inactive

Molecule: Nc1nc(OCC2CCCCC2)c2[nH]cnc2n1
Group label: inactive

Molecule: COc1cc(OC)c(/C=C2/C(=O)Nc3ccccc32)c(OC)c1
Group label: active

Molecule: O=C(O)CNC(=O)C(CS)Cc1ccccc1 (stereo not drawn)
Group label: inactive
